- Read-out: Cytochrome P450 4A22 (Homo sapiens)
- TEST METHOD NOTES: LTEA_HepaRG_CYP4A22: Life Technologies and Expression Analysis (LTEA) Assay for Cytochrome P450 4A22 (CYP4A22) using HepaRG (AID 2283495)
- CONDITION PARAMETERS: mRNA level, 48 h; actives raise or lower the signal
Active and inactive are the calls of the source. Rule for the calls: active = hit-call score of the fitted dose curve at least 0.9, where 1 is the maximum; inactive = score below 0.9.
Give one outcome, nothing more. List: active, inactive

molecule=Cc1cc(NC(=O)C(=O)O)cc(C)c1Oc1ccc(O)c2c1CCC2 category=active
molecule=Cc1ccc2ncccc2c1 category=inactive
molecule=CCCCCCOCCO category=inactive
molecule=CCc1c(C(=O)NN2CCCCC2)nn(-c2ccc(Cl)cc2Cl)c1-c1ccc(Br)cc1 category=active
molecule=Cc1ccccc1Cl category=inactive

Prompt line: Assay outcome for Nc1ccccc1N : what was it?
Response line: active

Prompt line: Assay outcome for C1CCC(SSC2CCCCC2)CC1 : what was it?
Response line: inactive

Prompt line: Assay outcome for C[Si]1(C)O[Si](C)(C)O[Si](C)(C)O[Si](C)(C)O1 : what was it?
Response line: inactive

Prompt line: Assay outcome for FC(F)(F)C(F)(F)C(F)(F)C(F)(F)C(F)(F)C(F)(F)CCI : what was it?
Response line: inactive

Prompt line: Assay outcome for CCCCc1ccc2c(n1)[C@@H](c1ccc(OC)cc1C[C@H](C)C(=O)O)[C@H](C(=O)O)[C@H]2c1ccc2c(c1)OCO2 : what was it?
Response line: inactive

Prompt line: Assay outcome for CCCCCCCCCCCC(=O)OC : what was it?
Response line: inactive

Prompt line: Assay outcome for O=c1[nH]cc(F)c(=O)[nH]1 : what was it?
Response line: active

Prompt line: Assay outcome for Cc1ccc(C)c(O)c1C : what was it?
Response line: inactive

Prompt line: Assay outcome for Cc1ccc(C(C)C)c(O)c1 : what was it?
Response line: inactive

Prompt line: Assay outcome for CC1=C(/C=C/C(C)=C/C=C/C(C)=C/CO)C(C)(C)CCC1 : what was it?
Response line: active

Prompt line: Assay outcome for Cc1c(C(=O)O)c(O)cc2c1C(=O)c1c(O)c([C@@H]3O[C@H](CO)[C@@H](O)[C@H](O)[C@H]3O)c(O)c(O)c1C2=O : what was it?
Response line: inactive

Prompt line: Assay outcome for Cc1oc(-c2ccccc2)nc1CCOc1cccc2c1ccn2CCC(=O)O : what was it?
Response line: active

Prompt line: Assay outcome for COCCOC[C@H](CC1(C(=O)NC2CCC(C(=O)O)CC2)CCCC1)C(=O)Oc1ccc2c(c1)CCC2 (some centres undefined) : what was it?
Response line: inactive

Prompt line: Assay outcome for CCCCCCCCCCCCCCCC : what was it?
Response line: inactive

----------
- TARGET DESC: guinea pig Sigma Receptor, Non-selective Binding, SIGMAR1 (gene 100135589) (UniProt Q60492)
- Sequence (Q60492 whole entry, looked up): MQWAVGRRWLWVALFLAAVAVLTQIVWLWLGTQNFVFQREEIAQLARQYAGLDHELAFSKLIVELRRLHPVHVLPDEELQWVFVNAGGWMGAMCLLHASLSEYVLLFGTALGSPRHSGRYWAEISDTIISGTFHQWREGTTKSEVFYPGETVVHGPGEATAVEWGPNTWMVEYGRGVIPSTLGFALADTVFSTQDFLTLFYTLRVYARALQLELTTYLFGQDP
- TEST METHOD NOTES: NVS_OR_gSIGMA_NonSelective: NovaScreen (NVS) Nuclear Receptor Binding Assay for guinea pig Sigma Receptor, Non-selective Binding (AID 2283367)
The source made the active and inactive calls. How the source made its calls: active means hit-call score of the fitted dose curve at least 0.9, where 1 is the maximum; inconclusive means response in the unintended direction; inactive means score below 0.9.
Give one outcome, nothing more. List: True (active), False (inactive)

test_smiles=Cc1ccccc1Cl category=True
test_smiles=CCOc1ccc2c(c1)C(C)=CC(C)(C)N2 category=True
test_smiles=NC(=O)Cn1c(=O)cc(CCN2CCN(c3nccc4sccc34)CC2)c2ccc(F)cc21 category=True
test_smiles=CCCCCCC(=O)OCC category=False

// switching to the query compound
Prompt line: Assay outcome for Cc1cccc([N+](=O)[O-])c1C : what was it?
Response line: False

----------
- TEST METHOD NOTES: CEETOX_H295R_MTT_cell_viability: Viability Assessment in the CeeTox HT-H295R MTT Assay (AID 2283718)
The source made the active and inactive calls. Rule for the calls: active = hit-call score of the fitted dose curve at least 0.9, where 1 is the maximum; inactive = score below 0.9.
Give one outcome, nothing more. List: active, inactive

Use these answered entries as a reference point.
compound=c1cc(-c2ccncc2)ccn1 category=inactive
compound=Cc1c(C(=O)O)c(O)cc2c1C(=O)c1c(O)c([C@@H]3O[C@H](CO)[C@@H](O)[C@H](O)[C@H]3O)c(O)c(O)c1C2=O category=inactive
compound=COc1ccc2c(c1)c(CC(=O)O)c(C)n2C(=O)c1ccc(Cl)cc1 category=inactive
compound=CC=Cc1ccc(O)c(OC)c1 category=inactive

Prompt line: Assay outcome for CC1(C)CC(N=C=O)CC(C)(CN=C=O)C1 (stereo not drawn) : what was it?
Response line: active

Prompt line: Assay outcome for Cc1cc(NC(=O)C(=O)O)cc(C)c1Oc1ccc(O)c2c1CCC2 : what was it?
Response line: inactive

Prompt line: Assay outcome for COc1ccc(S(=O)(=O)N2C(=O)[C@@](c3ccccc3OC)(N3C[C@H](O)C[C@H]3C(=O)N(C)C)c3cc(Cl)ccc32)c(OC)c1 : what was it?
Response line: active

Prompt line: Assay outcome for Cc1nc(C)nc(N2C[C@@H](C)N(c3ccnc([C@@H](C)O)n3)[C@@H](C)C2)n1 : what was it?
Response line: inactive

----------
- TEST METHOD NOTES: ATG_Oct_MLP_CIS: Attagene CIS-FACTORIAL HepG2 Assay for human Octamer-Binding Transcription Factor (Oct) (AID 2282993)
- CONDITION PARAMETERS: HepG2 Attagene cis-factorial Oct reporter, mRNA; actives raise or lower the signal
Calls of active or inactive are those of the source. The calls were made as follows: active = hit-call score of the fitted dose curve at least 0.9, where 1 is the maximum; inactive = score below 0.9.
Give one outcome, nothing more. List: T for active, F for inactive

Use these answered entries as a reference point.
molecule=Nc1nc(N)c2nc(CNc3ccc(C(=O)N[C@@H](CCC(=O)O)C(=O)O)cc3)cnc2n1 category=F
molecule=CCCCN(CCCC)CCCC category=F
molecule=CN1CCCC1=O category=F
molecule=FC(F)(F)C(F)(F)C(F)(F)C(F)(F)C(F)(F)C(F)(F)CCI category=F
molecule=CNCc1cc(F)ccc1Oc1ccc(Cl)c(Cl)c1 category=F

// switching to the query molecule
Prompt line: Assay outcome for Cc1cccc([N+](=O)[O-])c1C : what was it?
Response line: F

----------
- TEST METHOD NOTES: CCTE_Shafer_MEA_dev_network_spike_number: CCTE's Neural Network Formation Assay for Number of Network Spikes, Shafer Lab (AID 2284048);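 note: synchronized bursts across electrodes counted on days 5 7 9 12 and integrated as AUC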
Calls of active or inactive are those of the source. The calls were made as follows: active = hit-call score of the fitted dose curve at least 0.9, where 1 is the maximum; inactive = score below 0.9.
QUANTITY MEASURED: outcome

Reference set (6 entries):
test_smiles=FC(F)(F)C(F)(F)C(F)(F)C(F)(F)C(F)(F)C(F)(F)CCI experimental_value=inactive
test_smiles=CCCc1cc(=O)[nH]c(=S)[nH]1 experimental_value=inactive
test_smiles=Cc1cc(=O)[nH]c(=S)[nH]1 experimental_value=inactive
test_smiles=C[Si]1(C)O[Si](C)(C)O[Si](C)(C)O[Si](C)(C)O1 experimental_value=inactive
test_smiles=OC[C@@H](O)[C@@H](O)[C@H](O)[C@H](O)CO experimental_value=inactive
test_smiles=CC(C)c1ccc(C(=O)N=C(N)N)cc1S(C)(=O)=O experimental_value=inactive

# ---- query compound ----
Prompt line: Reported outcome for C=CCc1ccc(O)c(OC)c1 : what is it?
Response line: inactive

----------
- Read-out: Macrophage colony-stimulating factor (MCSF), CSF1 (gene 1435)
- TEST METHOD NOTES: BSK_CASM3C_MCSF: BioMAP Diversity Plus: CASM3C Assay for Macrophage colony-stimulating factor (MCSF) Biomarker Activity (AID 2283044);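 note: M-CSF protein amount quantified by ELISA after 24 h exposure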
- CONDITION PARAMETERS: primary human coronary artery smooth muscle cells; actives raise or lower the signal
Active and inactive are the calls of the source. Rule for the calls: active = hit-call score of the fitted dose curve at least 0.9, where 1 is the maximum; inactive = score below 0.9.
Give one outcome, nothing more. List: active, inactive

Use these answered entries as a reference point.
molecule=C1CCC(SSC2CCCCC2)CC1 category=inactive
molecule=CC(C)c1ccc(C(=O)N=C(N)N)cc1S(C)(=O)=O category=inactive
molecule=Cc1ccc2ncccc2c1 category=inactive
molecule=CCCCN(CCCC)CCCC category=inactive
molecule=COc1cc(C=O)ccc1O category=inactive

Prompt line: Assay outcome for CN1CCCC1=O : what was it?
Response line: inactive

Prompt line: Assay outcome for COc1ccc(S(=O)(=O)N2C(=O)[C@@](c3ccccc3OC)(N3C[C@H](O)C[C@H]3C(=O)N(C)C)c3cc(Cl)ccc32)c(OC)c1 : what was it?
Response line: inactive

Prompt line: Assay outcome for Cc1oc(-c2ccccc2)nc1CCOc1cccc2c1ccn2CCC(=O)O : what was it?
Response line: inactive

----------
- TEST METHOD NOTES: TOX21_p53_BLA_p4_viability: Viability Assessment in the Tox21 HCT-116 p53 Agonism Beta-lactamase Assay, Phase 4 (AID 2283597);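 note: hits lower the luminescence signal meaning cytotoxicity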
Records with an inconclusive call do not appear. The source made the active and inactive calls. The calls were made as follows: active = hit-call score of the fitted dose curve at least 0.9, where 1 is the maximum; inconclusive = response in the unintended direction; inactive = score below 0.9.
QUANTITY MEASURED: AC50

molecule=CCNc1cccc(C)c1 experimental_value=inactive
molecule=COc1ccc(S(=O)(=O)N2C(=O)[C@@](c3ccccc3OC)(N3C[C@H](O)C[C@H]3C(=O)N(C)C)c3cc(Cl)ccc32)c(OC)c1 experimental_value="67.7 µM (active)"
molecule=CC1(C)NC(=O)NC1=O experimental_value=inactive
molecule=Clc1cc(Cl)c(Cl)cc1Cl experimental_value=inactive
molecule=O=C(O)Cc1ccccc1Nc1c(Cl)cccc1Cl experimental_value="46.1 µM (active)"

Prompt line: Reported AC50 for Cc1ccc(C)c(O)c1C : what is it?
Response line: inactive

Prompt line: Reported AC50 for CNCc1cc(F)ccc1Oc1ccc(Cl)c(Cl)c1 : what is it?
Response line: inactive

Prompt line: Reported AC50 for COCCOC[C@H](CC1(C(=O)NC2CCC(C(=O)O)CC2)CCCC1)C(=O)Oc1ccc2c(c1)CCC2 (stereo partly drawn) : what is it?
Response line: inactive

Prompt line: Reported AC50 for CCCCN(CCCC)CCCC : what is it?
Response line: inactive

Prompt line: Reported AC50 for CC(=O)OC/C=C(\C)CCC=C(C)C : what is it?
Response line: inactive

Prompt line: Reported AC50 for COc1ccc2c(c1)c(CC(=O)O)c(C)n2C(=O)c1ccc(Cl)cc1 : what is it?
Response line: inactive

Prompt line: Reported AC50 for CC(=O)OCCOCCOCCOC(C)=O : what is it?
Response line: inactive

Prompt line: Reported AC50 for CCc1c(C(=O)NN2CCCCC2)nn(-c2ccc(Cl)cc2Cl)c1-c1ccc(Br)cc1 : what is it?
Response line: 2.1 µM (active)
